- experiment.description: Rat pharmacokinetics, cassette dosing (IV and PO)
- Type: in vivo
- experimental.context: rat, plasma, 5 mg/kg; male SD rats, oral AUC to IV AUC, dose adjusted
property.measured: bioavailability (%)

Answered examples (10):
* CN1CCN(c2ccc(C(=O)Nc3cc(-c4ccncc4)ccc3N)cn2)CC1 [Compound 027] | 78.6
* Nc1ccc(-c2cccs2)cc1NC(=O)c1cnc2cc(N3CCNCC3)ccc2c1 [Compound 023] | 51.2
* Nc1ccc(-c2ccoc2)cc1NC(=O)c1ccc(N2CCNCC2)cc1 [Compound 014] | 97
* Nc1ccc(-c2ccc(F)cc2)cc1NC(=O)c1ccc(N2CCNCC2)nc1 [Compound 036] | 69.1
* Nc1ccc(-c2ccoc2)cc1NC(=O)c1ccc2nc(N3CCNCC3)ccc2c1 [Compound 004] | 90.8
* Nc1ccc(-c2ccco2)cc1NC(=O)c1ccc(N2CCNCC2)cc1 [Compound 013] | 105
* Nc1ccc(-c2ccco2)cc1NC(=O)c1ccc2nc(N3CCNCC3)ccc2c1 [Compound 003] | 77
* Nc1ccc(-c2ccncc2)cc1NC(=O)c1cnc(N2CCNCC2)s1 [Compound 032] | 9.7
* Nc1ccc(-c2cccs2)cc1NC(=O)c1ccc(N2CCNCC2)s1 [Compound 033] | 191
* Nc1ccc(-c2ccccc2)cc1NC(=O)c1ccc2nc(N3CCNCC3)ccc2c1 [Compound 002] | 86.1

P. Nc1ccc(-c2ccco2)cc1NC(=O)c1cnc2cc(N3CCNCC3)ccc2c1 [Compound 024]
Q. Nc1ccc(-c2ccco2)cc1NC(=O)c1ccc(N2CCNCC2)nc1 [Compound 008]
Q. Decide: P or Q , by lowest recorded bioavailability. Respond with the label that goes with your answer.
A. P
(P: 36.3%, Q: 100%)

====

- experiment.description: Rat pharmacokinetics, cassette dosing (IV and PO)
- Type: in vivo
- experimental.context: rat; male SD rats, IV 1 mg/kg, plasma
property.measured: IV clearance (mL/min/kg)

Please review the entries below; each comes with its answer.
* Nc1ccc(-c2cccs2)cc1NC(=O)c1cnc(N2CCNCC2)cn1 [Compound 040] | 26.7
* Nc1ccc(-c2ccncc2)cc1NC(=O)c1cnc(N2CCNCC2)s1 [Compound 032] | 17.7
* Nc1ccc(-c2ccco2)cc1NC(=O)c1cnc2cc(N3CCNCC3)ccc2c1 [Compound 024] | 3.5
* Nc1ccc(-c2cccs2)cc1NC(=O)c1ccc(N2CCNCC2)cc1 [Compound 012] | 8.83
* Nc1ccc(-c2cccs2)cc1NC(=O)c1ccc(N2CCNCC2)s1 [Compound 033] | 10.8

1. Nc1ccc(-c2ccoc2)cc1NC(=O)c1ccc(N2CCNCC2)cc1 [Compound 014]
2. Nc1ccc(-c2ccc(F)cc2)cc1NC(=O)c1ccc(N2CCNCC2)nc1 [Compound 036]
3. Nc1ccc(-c2ccco2)cc1NC(=O)c1ccc2nc(N3CCNCC3)ccc2c1 [Compound 003]
4. Nc1ccc(-c2ccccc2)cc1NC(=O)c1ccc2nc(N3CCNCC3)ccc2c1 [Compound 002]
Q. Task field, ranking: reported IV clearance, descending order. List the labels, following the order given in the request.
A. 1, 2, 3, 4
(1: 11 mL/min/kg, 2: 7 mL/min/kg, 3: 3.17 mL/min/kg, 4: 2 mL/min/kg)

====

- experiment.description: Rat pharmacokinetics, cassette dosing (IV and PO)
- Type: in vivo
- experimental.context: rat; male SD rats, IV 1 mg/kg, plasma
property.measured: IV clearance (mL/min/kg)

- Nc1ccc(-c2ccco2)cc1NC(=O)c1ccc(N2CCNCC2)nc1: 14.3

1. Nc1ccc(-c2cccs2)cc1NC(=O)c1cnc2cc(N3CCNCC3)ccc2c1
2. Nc1ccc(-c2ccco2)cc1NC(=O)c1ccc(N2CCNCC2)cc1
3. Nc1ccc(-c2ccoc2)cc1NC(=O)c1ccc2nc(N3CCNCC3)ccc2c1
4. Nc1ccc(-c2ccc(F)cc2)cc1NC(=O)c1ccc2nc(N3CCNCC3)ccc2c1
5. Nc1ccccc1NC(=O)c1cc2ccc(N3CCNCC3)cc2cn1
Q. Place the items in sequence of falling IV clearance. Enter labels, ranked according to the request.
A. 5, 2, 1, 4, 3
(5: 94.3 mL/min/kg, 2: 13 mL/min/kg, 1: 6 mL/min/kg, 4: 2.83 mL/min/kg, 3: 0.667 mL/min/kg)

a. CN1CCN(c2ccc(C(=O)Nc3cc(-c4ccncc4)ccc3N)cn2)CC1
b. Nc1ccc(-c2ccccc2)cc1NC(=O)c1cc2ccc(N3CCNCC3)cc2cn1
Q. I would appreciate it if you could say which entry, a or b , has the lower IV clearance value. State your choice using its label.
A. a

====

- experiment.description: Rat pharmacokinetics, cassette dosing (IV and PO)
- Format: in vivo
- experimental.context: rat; male SD rats, PO 5 mg/kg, plasma
property.measured: AUC (ng·h/mL)

Known results for compounds:
* Nc1ccc(-c2ccco2)cc1NC(=O)c1ccc(N2CCNCC2)cc1 [Compound 013] | 5780
* Nc1ccc(-c2cccs2)cc1NC(=O)c1cnc(N2CCNCC2)cn1 [Compound 040] | 3340
* Nc1ccc(-c2ccncc2)cc1NC(=O)c1ccc(N2CCNCC2)nc1 [Compound 010] | 570

1. Nc1ccc(-c2ccco2)cc1NC(=O)c1ccc2nc(N3CCNCC3)ccc2c1 [Compound 003]
2. Nc1ccc(-c2ccco2)cc1NC(=O)c1cnc2cc(N3CCNCC3)ccc2c1 [Compound 024]
Q. Could you please tell me which of these two has the higher AUC: 1 or 2 ? Your answer should be the label attached to the chosen record.
A. 1

====

- experiment.description: Rat pharmacokinetics, cassette dosing (IV and PO)
- Assay type: in vivo
- experimental.context: rat; male SD rats, PO 5 mg/kg, plasma
- Method: Male SD rats were fasted overnight. Compounds of the invention were dissolved in dimethyl acetamide at 10 times the final concentration, then Solutol HS 15 (BASF) was added to a final concentration of 10%. […] The plasma was extracted with acetonitrile and the level of compound was analyzed by LC/MS/MS. The level of compound in plasma was calculated from a standard curve in rat plasma. The IV clearance (L/h/kg) and area under the curve (h*ng/mL) were calculated using WinNonLin software. […]
property.measured: AUC (ng·h/mL)

Recorded AUC, per entry:
• Nc1ccc(-c2ccc(F)cc2)cc1NC(=O)c1ccc(N2CCNCC2)nc1 = 7280
• Nc1ccc(-c2cccs2)cc1NC(=O)c1cnc2cc(N3CCNCC3)ccc2c1 = 6370
• Nc1ccccc1NC(=O)c1cc2ccc(N3CCNCC3)cc2cn1 = 763
• Nc1ccc(-c2ccc(F)cc2)cc1NC(=O)c1ccc2nc(N3CCNCC3)ccc2c1 = 20200
• Nc1ccc(-c2ccoc2)cc1NC(=O)c1ccc(N2CCNCC2)cc1 = 7100
• Nc1ccc(-c2ccco2)cc1NC(=O)c1ccc(N2CCNCC2)nc1 = 5540

1. CN1CCN(c2ccc(C(=O)Nc3cc(-c4ccncc4)ccc3N)cn2)CC1
2. Nc1ccc(-c2ccoc2)cc1NC(=O)c1ccc2nc(N3CCNCC3)ccc2c1
3. Nc1ccc(-c2cccs2)cc1NC(=O)c1ccc(N2CCNCC2)s1
Q. Ranking field: AUC; order: falling. // respond by listing labels in the order requested
A. 2, 3, 1

====

Entries with reported IC50 on UniProtKB O15379
Sequence (O15379 whole entry): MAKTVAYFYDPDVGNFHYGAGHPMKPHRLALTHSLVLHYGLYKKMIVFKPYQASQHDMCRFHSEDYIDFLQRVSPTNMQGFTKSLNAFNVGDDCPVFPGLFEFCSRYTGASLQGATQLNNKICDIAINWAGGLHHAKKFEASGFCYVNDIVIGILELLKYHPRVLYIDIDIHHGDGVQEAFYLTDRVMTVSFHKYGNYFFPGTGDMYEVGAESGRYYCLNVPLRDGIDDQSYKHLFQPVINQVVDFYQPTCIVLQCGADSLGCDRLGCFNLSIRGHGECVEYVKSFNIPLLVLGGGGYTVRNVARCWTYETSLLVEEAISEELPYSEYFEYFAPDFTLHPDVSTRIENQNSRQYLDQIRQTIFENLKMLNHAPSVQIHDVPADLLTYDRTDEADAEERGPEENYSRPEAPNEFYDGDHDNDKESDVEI
Sequence (Q9Y618 395-489 partner): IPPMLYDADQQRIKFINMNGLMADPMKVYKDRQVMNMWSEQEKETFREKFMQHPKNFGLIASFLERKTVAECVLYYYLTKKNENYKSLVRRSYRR

- Nc1ccc(-c2ccncc2)cc1NC(=O)c1cnc(N2CCNCC2)cn1: 10 to 500 nM
- Nc1ccc(-c2cccs2)cc1NC(=O)c1cnc(N2CCNCC2)cn1: 10 to 500 nM
- Nc1ccc(-c2ccccc2)cc1NC(=O)c1cnc(N2CCNCC2)s1: > 500 nM
- CN1CCN(c2ncc(C(=O)Nc3cc(-c4ccccc4)ccc3N)s2)CC1: > 500 nM
- Nc1ccc(-c2ccccc2F)cc1NC(=O)c1ccc(N2CCNCC2)nc1: 10 to 500 nM
- CN1CCN(c2ccc(C(=O)Nc3cc(-c4cccs4)ccc3N)cn2)CC1: 10 to 500 nM

From here, focus on the item given below.
Form field, IC50 with UniProtKB O15379, item `Nc1ccc(-c2ccco2)cc1NC(=O)c1ccc(N2CCNCC2)s1` : 10 to 500 nM

====

- experiment.description: Rat pharmacokinetics, cassette dosing (IV and PO)
- Type: in vivo
- experimental.context: rat, plasma, 5 mg/kg; male SD rats, oral AUC to IV AUC, dose adjusted
property.measured: bioavailability (%)

Below are worked cases with known answers.
- Nc1ccccc1NC(=O)c1cc2ccc(N3CCNCC3)cc2cn1: 89.8
- Nc1ccc(-c2ccncc2)cc1NC(=O)c1ccc(N2CCNCC2)nc1: 12.6
- Nc1ccc(-c2cccs2)cc1NC(=O)c1cnc(N2CCNCC2)cn1: 151

A. Nc1ccc(-c2cccs2)cc1NC(=O)c1ccc(N2CCNCC2)cc1
B. Nc1ccc(-c2ccccc2)cc1NC(=O)c1cc2ccc(N3CCNCC3)cc2cn1
Q. Of A versus B , which is the one with smaller reported bioavailability? Label of pick, please.
A. A
(A: 93.9%, B: 195%)
